Data provenance: ChEMBL document CHEMBL4513216

- assay details: Toxicity liver stage against HepG2, at 10uM
- Format: cell-based
- Parameters: test concentration 10 uM, cell line HepG2-A16-CD81EGFP
- measurement conditions: human, HepG2-A16-CD81EGFP cells; read-out: INHIBITION
For each of the molecules below, state its cytotoxicity at 10 µM.
Give bare numbers, in %.

// solved cases for cytotoxicity at 10 µM follow
CC1(NC(=O)Cc2csc(NC(=O)c3ccccc3)n2)CCS(=O)(=O)C1 (stereo not drawn) = 0.271
COc1ccccc1S(=O)(=O)NCC(c1cccn1C)N(C)C (stereo not drawn) = 1.51
Cc1ccc(C2(CN(C)Cc3sccc3C)CCNCC2)nc1 = 8.15
Cc1cc(CN2CC[C@@H]3O[C@@H](c4nnc(C)o4)C[C@H]3C2)no1 = -103

Batch of 7 molecules: report cytotoxicity at 10 µM for each.
1. CS(=O)(=O)NCCCNC(=O)c1cccc(-n2cccc2)c1
2. CNC(=O)c1cc2c(nc1NCC1CC1)CCN(S(=O)(=O)C1CC1)CC2
3. COc1c(CNC2CCc3cc(F)ccc32)c(C)nn1C (stereo not drawn)
4. COCCN(Cc1sccc1C)C(=O)COc1cccnc1
5. COc1ccc(CN2CCCn3cncc3C2)cc1Cn1cncn1
6. Cc1nc(CN(Cc2cccnc2)Cc2ccsc2)c[nH]1
7. CCn1ccnc1CN1CCN(Cc2ccccn2)CC1C (stereo not drawn)

[-9.86, -13.3, -8.11, -138, 5.63, 0.935, 14.3]

Batch of 2 molecules: report cytotoxicity at 10 µM for each.
1. CC(C)c1nc2c(n1C)CCN(CC(=O)Nc1ccncc1)C2
2. O=C(Cc1ccc(-c2ccccc2)cc1)N1CCOCC(O)C1 (stereo not drawn)

0.698
1.51

###

Please provide measured cytotoxicity at 10 µM for the entries that follow.
- assay details: Toxicity liver stage against HepG2, at 10uM
- Assay type: cell-based
- Design: test concentration 10 uM, cell line HepG2-A16-CD81EGFP
- measurement conditions: human, HepG2-A16-CD81EGFP cells; read-out: INHIBITION
Kindly report the value followed by its unit.

# example entries with known answers
CNS(=O)(=O)c1ccc(C)c(C(=O)NCCNc2ncccn2)c1 = -1.87%
NC(=O)CC1CCN(S(=O)(=O)N2CCCC2c2ccco2)CC1 (centres undefined) = 3.82%
CN(C)c1nc2n(c(=O)n1)CCN2C(=O)Nc1ccccc1 = 4.73%
CN(C)C(=O)C1CN(c2ncccn2)CCN1C (centres undefined) = -0.419%
Cc1cc(=O)c(C(=O)N2CCN(C)c3ccccc3C2)c[nH]1 = 3.53%
CC(NS(C)(=O)=O)C(=O)N(C)Cc1cnn(-c2ccc(F)cc2)c1 (centres undefined) = -7.94%
CC(C)(C)n1ncc2c1CCCC2NCc1ccsc1 (centres undefined) = 3.59%
CNC(=O)C1(CCCc2ccccn2)CN(Cc2coc(C)n2)C1 = 8.62%
CC(C)n1cnnc1CN(C)Cc1ccc(CO)o1 = 3.68%
Cn1cnnc1C1CCCN(C(=O)COCc2ccccc2)C1 (centres undefined) = -18.1%

Field: cytotoxicity at 10 µM. Fill in for each record below.
1. CS(=O)(=O)c1ccc(CN2C[C@@H]3OCC(=O)N(CC(N)=O)[C@@H]3C2)cc1
2. CCCN1CCC(N(C)CCC(=O)Nc2ccccc2SC)CC1
3. O=C1C(Nc2ccc3nccnc3n2)CCN1c1ccccc1 (centres undefined)
4. O=C(c1cscn1)N1CCC2(CCN(Cc3nccs3)C2)CC1

["2.67%", "15.5%", "0.562%", "1.8%"]

###

- assay details: Toxicity liver stage against HepG2, at 10uM
- Type: cell-based
- Design: test concentration 10 uM, cell line HepG2-A16-CD81EGFP
- measurement conditions: human, HepG2-A16-CD81EGFP cells; read-out: INHIBITION
Give cytotoxicity at 10 µM for every item shown.
Answers are plain numbers, in %.

Batch lookup, cytotoxicity at 10 µM per entry.
1. Cc1ccc(C(=O)N2C[C@H](N3CCOCC3)[C@@H]3OCCC[C@@H]32)cn1
2. Cc1noc(C)c1CN1Cc2ccnn2CC(C(=O)NCC2CC2)C1 (stereo not given)
3. CCN1C(=O)C[C@@H]2[C@@H]1CCN2S(=O)(=O)c1ccc(OC)cc1
4. CC(C)(C)CC(=O)NCCn1nc(C2CCNC2)c2cccnc21 (stereo not given)
5. CNC(=O)CN1CCCC12CCN(C(=O)c1cccc(F)c1)CC2
6. CCN(CC)[C@@H]1CN(C(=O)c2ccnnc2)[C@@H]2CCCO[C@H]12
7. CCn1nc(C)c2nc(C(C)C)nc(N3CCC(O)CC3)c21

[-108, -69.2, 0.434, -0.00173, 6.62, -146, 1.3]

# batch: return cytotoxicity at 10 µM for each of the 7 compounds below
1. O=C(Cc1csc(-c2ccccc2)n1)N[C@@H](C(=O)O)c1ccccc1
2. Cn1ccnc1CN1CC[C@H](O)[C@@H](n2ccc(=O)[nH]c2=O)CC1
3. CCN1CCCC(O)(CNCc2ccncc2)C1 (stereo not given)
4. Cn1cc(NC(=O)c2ccccn2)cc(Br)c1=O
5. CC(C)C[C@H](Nc1nc(C2CCCC2)nc2c1cnn2C)C(N)=O
6. Cc1noc(C)c1-c1n[nH]c2c1CN(S(=O)(=O)c1ccsc1)CC2
7. CS(=O)(=O)N1C[C@H]2CC[C@@H](C1)N(C(=O)Cn1ccc3ccccc31)C2

[6.56, -9.31, -2.93, -12.8, -42.3, 5.6, -1.38]

Please look up its cytotoxicity at 10 µM: Cc1ccc(C#N)c(N2CCCC(c3nccn3Cc3cscn3)C2)n1 (stereo not given)
-1.9

###

- assay details: Toxicity liver stage against HepG2, at 10uM
- Type: cell-based
- Set-up: test concentration 10 uM, cell line HepG2-A16-CD81EGFP
- measurement conditions: human, HepG2-A16-CD81EGFP cells; read-out: INHIBITION
property label: cytotoxicity at 10 µM (%)
Numbers only, in %.

# count of solved cases: 5
O=C(c1sccc1C1CC1)N1CCN(c2ncccn2)CC1 = -6.87
O=C(NCc1ccc2c(c1)OCO2)Nc1cccnc1N1CCCC1 = -13.4
COc1cc(N2CC[C@H](O)[C@@H]2Cc2ccccc2)ncn1 = -75
O=C1CCc2cc(OCCN3CCc4cncnc4C3)ccc2N1 = -7.2
CSCCC(NC(N)=O)C(=O)NCc1cnn(-c2ccccc2)c1 (configuration not stated) = 5.79

Please give cytotoxicity at 10 µM, item by item, for the list that follows.
1. CS(=O)(=O)N1Cc2nccn2CC(CN2CCCC2=O)C1 (configuration not stated)
2. COc1ccc(OC)c(CNCCc2cc(F)cc3c2OCOC3)c1
3. Cc1cc(NCc2ccc(CS(N)(=O)=O)cc2)nc(C)n1
4. O=C1CC2(CCCCN2C(=O)c2ccsc2)CN1CC1CC1 (configuration not stated)
5. O=C(NCC1(c2ccc(F)cc2)CCC1)N1CCC2(CCOCC2)C1
6. NC(=O)Cc1ccc(OCc2noc(C(=O)N3CCCC3)n2)cc1
7. CCc1cc(NCc2cccnc2N2CCCCC2)n2ncnc2n1

[5.8, -8.08, -7.2, 2.84, 3.73, -13.6, 10.5]

# batch: return cytotoxicity at 10 µM for each of the 3 compounds below
1. c1cnc(NC[C@@H]2CCC[C@@H]3CN(Cc4cc[nH]n4)C[C@@H]32)nc1
2. CCCN1CCN(C(=O)c2cncnc2C)[C@H]2CS(=O)(=O)C[C@H]21
3. Cn1cnc(S(=O)(=O)NCC2(O)CCOc3ccccc32)c1 (configuration not stated)

-13.1
0.145
12

Your task in this section: give cytotoxicity at 10 µM for each listed record.
1. O=C(Nc1cccnc1-n1cc(Cl)cn1)C1CCCCC1
2. Cc1ccc2cc(C3(O)CCN(C(=O)CSC(C)C)CC3)ccc2n1

[-39, 22]

###

- assay details: Toxicity liver stage against HepG2, at 10uM
- Assay type: cell-based
- Parameters: test concentration 10 uM, cell line HepG2-A16-CD81EGFP
- measurement conditions: human, HepG2-A16-CD81EGFP cells; read-out: INHIBITION
Assign cytotoxicity at 10 µM to each entry below.
One number for each entry, in %.

CC(C)COCC(NC(=O)c1ccncc1)c1ccco1 (stereo unspecified) = -9.53
CN(C)C(CNS(=O)(=O)c1ccc(F)cc1F)c1cccn1C (stereo unspecified) = -13.9
COc1cccc(CC2(C(=O)O)CCN(c3nccs3)CC2)c1 = -9.59
COc1cc(N2C[C@@H]3COC[C@]3(COCc3ccncc3)C2)ncn1 = -72.4

Can you give me cytotoxicity at 10 µM for all of these, one by one?
1. CCn1cnnc1CNC(=O)c1cc(Cl)ccc1O
2. Cc1cnn(C2CCCN(C(=O)c3cn(-c4ccccc4)nc3C)C2)c1 (stereo unspecified)
3. CN(C)CCCNC(=O)c1cnc(Cc2ccc(F)cc2)s1
4. CN(Cc1ccco1)C[C@H]1OC[C@@H]2CCN(Cc3cccs3)C[C@@H]21
5. CN(C)c1nccnc1C1CCN(C2CCCCC2O)CC1 (stereo unspecified)
6. Cc1nc(CN2CCCC2c2c(C)nn(C)c2Cl)oc1C (stereo unspecified)
7. Cc1nnc(C(C)N(C)Cc2c(C)nn(-c3ccccc3)c2C)o1 (stereo unspecified)

1: 2.17; 2: -5.46; 3: 3.47; 4: 8.11; 5: 8.12; 6: -3.33; 7: -4.73

For the 3 compounds below, give their cytotoxicity at 10 µM values.
1. Cc1nc(C)n(CC2CCCCN2CCc2ccncc2)n1 (stereo unspecified)
2. CN(CC1CCN(c2ccccc2)C1)c1ccc(Cn2ccnc2)cn1 (stereo unspecified)
3. CCN(C(=O)CS(=O)(=O)c1cc(OC)c(OC)cc1C)C1CC1

-6.3
-142
-3.91

// for each compound in input: emit cytotoxicity at 10 µM
1. COCCOc1ncccc1C(=O)N(C)c1nccs1
2. CCC(NC1Cc2ccccc2C1)c1ccc(S(C)(=O)=O)cc1 (stereo unspecified)
3. COc1ccc(C(N)=O)cc1NCc1noc(-c2ccsc2)n1
4. CN(C)CCN1CCN(C)C2(CCN(c3nccs3)CC2)C1=O

1. -44.1
2. -2.02
3. 3.33
4. -1.92

Quick one: give me cytotoxicity at 10 µM for each item below, same order please.
1. CCOc1cccc(C(C)NC(=O)N2CCC(C(N)=O)CC2)c1 (stereo unspecified)
2. CCCc1ccc(CN2C[C@H]3C(=O)N(CC4CC4)C[C@@]3(C(=O)O)C2)o1
3. O=S(=O)(NC1CCCN(c2ncccn2)C1)N1CCCCCC1 (stereo unspecified)
4. CCc1nc2n(n1)CC(NCc1cnn(-c3ccccc3)n1)CC2 (stereo unspecified)
5. CCc1cnc(C)nc1NCc1nc(COC)no1
6. COc1cccc2c1ccn2CCC(=O)N1CCCC(C(=O)O)C1 (stereo unspecified)

[-2.95, -3.86, 12.7, -3.01, 3.24, 2.11]
